- TARGET SYSTEM: T1, human EpCAM expressed on cells (CHO, Colo205, 293) (human, UniProt P16422 24-314)
- T1 construct: whole, on cells; also called CHO cells expressing human EpCAM; Colo205 cells expressing human EpCAM
- T1 sequence (looked up): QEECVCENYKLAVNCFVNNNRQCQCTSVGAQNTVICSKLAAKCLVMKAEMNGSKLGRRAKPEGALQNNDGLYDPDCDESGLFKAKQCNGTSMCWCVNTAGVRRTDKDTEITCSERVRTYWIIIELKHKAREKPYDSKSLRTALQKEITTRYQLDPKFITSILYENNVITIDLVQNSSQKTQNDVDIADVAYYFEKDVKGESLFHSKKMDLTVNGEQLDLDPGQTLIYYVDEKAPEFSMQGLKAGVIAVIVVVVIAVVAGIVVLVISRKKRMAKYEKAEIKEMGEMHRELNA
- EXPERIMENTAL DETAILS: FACS on Colo205 cells expressing human EpCAM, pH 7.4
MEASURED ENDPOINT: EC50 (µg/mL)
Report as a plain number; the unit µg/mL is understood.

Given the entry BAP-105.4-02-01 (antibody, V domains shown, Humanized) VH: EVQLVQSGAEVKKPGATVKISCKVSGYTFTSYWMHWVRQAPGQGLEWMGYIRPSTGYTEYNQKFKDRFTISRDNSKNTLYLQMNSLRAEDTAVYYCGRGDNWVGFANWGQGTLVTVSS VL: EIVMTQSPATLSVSPGERATLSCSASSSISYMHWYQQKPGKAPKLLIYSTSNLASGVPSRFSGSGSGTEFTLTISSLQPDDFATYYCHQWSTYETFGQGTKVEIK , report its measured EC50.
0.652
